Molecular target: Full-length glucokinase (beta cell isoform) (Homo sapiens, UniProt P35557)
Construct: Full-length glucokinase (beta cell isoform) was His-tagged at N-terminus; His tag (N); made in house
Sequence (P35557 whole entry, species assumed, canonical isoform): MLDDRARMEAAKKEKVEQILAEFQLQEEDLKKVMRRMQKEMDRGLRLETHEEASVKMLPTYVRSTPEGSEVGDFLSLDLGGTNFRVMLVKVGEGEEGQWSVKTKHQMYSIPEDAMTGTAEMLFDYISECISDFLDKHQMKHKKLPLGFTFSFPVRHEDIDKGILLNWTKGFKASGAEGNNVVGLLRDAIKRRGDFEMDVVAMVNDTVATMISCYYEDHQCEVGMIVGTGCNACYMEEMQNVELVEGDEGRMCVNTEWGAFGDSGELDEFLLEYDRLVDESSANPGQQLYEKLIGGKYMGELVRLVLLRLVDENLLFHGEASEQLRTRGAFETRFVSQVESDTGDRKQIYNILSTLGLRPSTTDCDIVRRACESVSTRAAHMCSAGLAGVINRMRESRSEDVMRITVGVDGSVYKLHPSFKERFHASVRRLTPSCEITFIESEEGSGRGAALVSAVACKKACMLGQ
Experiment: Glucokinase biochemical assay (PK/LDH-coupled, NADH depletion at 340 nm): % activation, EC50, % max activation
Settings: 5 mM glucose; fitted maximum activation; read-out: % Max Activation
resultType: Emax (%)

Recorded Emax (compound Cn1ccc(NC(=O)c2cc(Oc3ccc(S(C)(=O)=O)cc3F)c3c(c2)OC(C)(C)C3)n1 ): 152

Recorded Emax (compound Cn1ccc(NC(=O)c2cc(Oc3cnc(C(=O)N4CCC4)c(F)c3)c3c(c2)OC(C)(C)C3)n1 ): 148

(P) Cc1ccc(NC(=O)c2cc(OC(C)C)cc3oc(Br)cc23)nc1
(Q) Cc1ccc(NC(=O)c2cc(Oc3ccc(C(=O)N(C)C)nc3)c3c(c2)OC(C)(C)C3)nc1
// returns P or Q , whichever has the lower Emax Choose, then provide that item's label.
Q
